Listed here: items and their measured T/C.
tested on: BDF1 mice, B16 melanoma ip, median survival T/C; assay: NCI In Vivo Anticancer Drug Screen. Data for tumor model B16 Melanoma (intraperitoneal) in B6D2F1 (BDF1) mice; details: endpoint: median survival time; dose: 12.5 mg/kg/injection; schedule: Q01DX009 (ip); vehicle: saline; higher = longer survival
Inconclusive results and toxic doses are left out.

For orientation, consider the following solved cases.
>>> value_reported("COc1cc(OC)c(OC)cc1/C=C\\c1ccc2ccccc2[n+]1C")
"100 % of control"
>>> value_reported("Nc1[nH]c(=O)nc2nc[nH]c12")
"108 % of control"
>>> value_reported("CC[N](CC)[Ge]([CH2]C)[CH2]C.CC[N](CC)[Ge]([CH2]C)[CH2]C")
"99 % of control"

Problem: Which measured T/C value corresponds to CN(C)CCCN1Cc2ccccc2Cc2ccccc21 ?
Result: 103 % of control
